Test system: 994946-033-R-J1-PDC complex spheroid viability;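 also: spheroids exposed to drugs for 7 days; 100% = DMSO vehicle treated spheroids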
protocol_details: Anticancer human tumor 994946-033-R-J1-PDC patient-derived melanoma cell line growth inhibition [POLQ]
test_settings: second compound 0.1 µM; first compound 0.0316 µM; active compounds read low
value_type: viability, T/C (%)
Your answer is read as %, so omit the unit and give the number.

>  <compound>
O=c1[nH]cc(F)c(=O)[nH]1 + Cc1cccc(N(C)C(=O)C2C(O)CCN2c2nc(C)cc(C(F)(F)F)c2C#N)c1

>  <experimental_target>
994946-033-R-J1-PDC complex spheroid viability;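 also: spheroids exposed to drugs for 7 days; 100% = DMSO vehicle treated spheroids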

>  <value_type>
viability, T/C

>  <quantitative_result>
91.6

$$$$
>  <compound>
CC[C@@]1(O)C(=O)OCc2c1cc1n(c2=O)Cc2cc3c(CN(C)C)c(O)ccc3nc2-1 + Nc1ccc(C#CCN(C(=O)Cc2ncc(C(F)(F)F)cc2C(F)(F)F)c2ccc(F)cc2)nn1

>  <experimental_target>
994946-033-R-J1-PDC complex spheroid viability;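 also: spheroids exposed to drugs for 7 days; 100% = DMSO vehicle treated spheroids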

>  <value_type>
viability, T/C

>  <quantitative_result>
46.9

$$$$
>  <compound>
C=CCn1c(=O)c2cnc(Nc3ccc(N4CCN(C)CC4)cc3)nc2n1-c1cccc(C(C)(C)O)n1 + Cc1cccc(N(C)C(=O)C2C(O)CCN2c2nc(C)cc(C(F)(F)F)c2C#N)c1

>  <experimental_target>
994946-033-R-J1-PDC complex spheroid viability;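 also: spheroids exposed to drugs for 7 days; 100% = DMSO vehicle treated spheroids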

>  <value_type>
viability, T/C

>  <quantitative_result>
103

$$$$
>  <compound>
C#Cc1c(F)ccc2cc(O)cc(-c3ncc4c(N5CC6CCC(C5)N6)nc(OCC56CCCN5CC(F)C6)nc4c3F)c12 (stereo not given) + COC1C(OC(N)=O)C(O)C(Oc2ccc3c(O)c(NC(=O)c4ccc(O)c(CC=C(C)C)c4)c(=O)oc3c2C)OC1(C)C

>  <experimental_target>
994946-033-R-J1-PDC complex spheroid viability;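 also: spheroids exposed to drugs for 7 days; 100% = DMSO vehicle treated spheroids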

>  <value_type>
viability, T/C

>  <quantitative_result>
107

$$$$

IN: For CC1COCCN1c1cc(C2(O)CC3CCC(C2)O3)c2cnn(-c3ccn[nH]3)c2n1 (stereo not given) + COC1C(OC(N)=O)C(O)C(Oc2ccc3c(O)c(NC(=O)c4ccc(O)c(CC=C(C)C)c4)c(=O)oc3c2C)OC1(C)C , what is its reported viability, T/C?
OUT: 61.9

IN: Then COc1cccc2c1C(=O)c1c(O)c3c(c(O)c1C2=O)CC(O)(C(=O)CO)CC3OC1CC(N)C(O)C(C)O1 (stereo not given) + Cc1cccc(N(C)C(=O)C2C(O)CCN2c2nc(C)cc(C(F)(F)F)c2C#N)c1 ?
OUT: 26.8

IN: Then COc1cccc(OCCCN)c1-c1cc(Nc2cnc(C#N)cn2)n[nH]1 + COC1C(OC(N)=O)C(O)C(Oc2ccc3c(O)c(NC(=O)c4ccc(O)c(CC=C(C)C)c4)c(=O)oc3c2C)OC1(C)C ?
OUT: 27.5

IN: Then COc1cc(C2c3cc4c(cc3C(OC3OC5COC(C)OC5C(O)C3O)C3COC(=O)C23)OCO4)cc(OC)c1O (stereo not given) + COC1C(OC(N)=O)C(O)C(Oc2ccc3c(O)c(NC(=O)c4ccc(O)c(CC=C(C)C)c4)c(=O)oc3c2C)OC1(C)C ?
OUT: 95.9

IN: Then COc1cccc2c1C(=O)c1c(O)c3c(c(O)c1C2=O)CC(O)(C(=O)CO)CC3OC1CC(N)C(O)C(C)O1 (stereo not given) + COC1C(OC(N)=O)C(O)C(Oc2ccc3c(O)c(NC(=O)c4ccc(O)c(CC=C(C)C)c4)c(=O)oc3c2C)OC1(C)C ?
OUT: 38.2

Each recorded value in this set is attributed to PubChem BioAssay AID1963827.
